Molecular target: UniProt P01721
Experiment: Unlabeled LC Protease Sensitivity Assay (proteinase K)
Assay type: biochemical
Conditions: small molecule 10 μM, WIL-FL 5 μM, proteinase K 50 nM, 2 hours at 37° C.
observable: Protection (fold protection of LC from protease)

Would you please look over these solved cases?
CCN(CC)c1ccc2c(C)c(CCN3C(=O)NC4(CCN(C(=O)c5cnccn5)C4)C3=O)c(=O)oc2c1 (centres unmarked) [Compound 211] :: B (3 ≤ B < 0.6)
CCN(CC)c1ccc2c(C)c(CCOC(=O)N3CCN(c4ncccn4)CC3)c(=O)oc2c1 [Compound 116] :: A (A < 0.3))
Cc1cc(=O)oc2cc(OCC(C)c3ccccc3)ccc12 (centres unmarked) [Compound 43] :: B (3 ≤ B < 0.6)
CCN(CC)c1ccc2c(C)c(CCOC(=O)NCCc3cccnc3)c(=O)oc2c1 [Compound 83] :: A (A < 0.3))

**Query** Find the recorded Protection (fold protection of LC from protease) belonging to CCN(CC)c1ccc2c(C)c(CCOC(=O)NCc3ccccc3)c(=O)oc2c1 [Compound 78] and report it.
**Result** A (A < 0.3))

* * *

Target: WIL-FL (Homo sapiens)
Experiment: Unlabeled LC Protease Sensitivity Assay (proteinase K)
Type: biochemical
Details: small molecule 10 μM, WIL-FL 5 μM, proteinase K 50 nM, 2 hours at 37° C.
observable: Protection (fold protection of LC from protease)

Record excerpt, results attached:
CCN(CC)c1ccc2c(CCCOC(=O)NCc3ccccc3)cc(=O)oc2c1 :: A (A < 0.3))
Cc1cc(=O)oc2cc(OC(C)c3ccccc3F)ccc12 (centres unmarked) :: A (A < 0.3))
CCN(CC)c1ccc2c(C)c(CCOC(=O)NCc3cccc(NC(C)=O)c3)c(=O)oc2c1 :: C (C ≥ 0.6)
CCN(CC)c1ccc2c(C)c(CCN3C(=O)NC4(CCN(S(=O)(=O)NC)C4)C3=O)c(=O)oc2c1 (centres unmarked) :: B (3 ≤ B < 0.6)
C#CCNc1ccc2c(C)cc(=O)oc2c1 :: A (A < 0.3))
Cc1cc(=O)oc2cc(NCCCF)ccc12 :: A (A < 0.3))

**Query** If you can, please state the reported Protection (fold protection of LC from protease) value of CCN(CC)c1ccc2c(C)c(CCOC(=O)NCc3cccc(-c4cn[nH]c4)c3)c(=O)oc2c1 .
**Result** C (C ≥ 0.6)

**Query** Continue with CCN(CC)c1ccc2c(C)c(CCN3C(=O)NC4(CCN(c5ncnc6c5cnn6C)CC4)C3=O)c(=O)oc2c1
**Result** C (C ≥ 0.6)

**Query** Try CCN(CC)c1ccc2c(C)c(CCOC(=O)NCc3cc(F)cc(C(N)=O)c3)c(=O)oc2c1 next.
**Result** C (C ≥ 0.6)

**Query** Now this one: CCN(CC)c1ccc2c(C)c(CCOC(=O)NCc3cccc(-c4ccccc4OS(=O)(=O)F)c3)c(=O)oc2c1
**Result** A (A < 0.3))

**Query** Same for CCCN(CC)c1ccc2c(C)cc(=O)oc2c1
**Result** A (A < 0.3))

**Query** Record: CCN(CC)c1ccc2c(C)c(CCN3C(=O)NC4(CCN(c5ccc(C(F)(F)F)cn5)C4)C3=O)c(=O)oc2c1 (centres unmarked)
**Result** A (A < 0.3))

**Query** Now consider CCN(CC)c1ccc2c(C)c(CCN3C(=O)NC4(CCN(C(=O)c5cncnc5)C4)C3=O)c(=O)oc2c1 (centres unmarked) and answer again.
**Result** B (3 ≤ B < 0.6)

**Query** Cool, now CCN(CC)c1ccc2c(C)c(CCNC(=O)NCCc3cccnc3)c(=O)oc2c1
**Result** B (3 ≤ B < 0.6)

**Query** Subsequent entry: Cc1cc(=O)oc2cc(OC(C)c3cccnc3)ccc12 (centres unmarked)
**Result** A (A < 0.3))

**Query** Same lookup for Cc1c(CN2CCOCC2)c(=O)oc2cc(OC(C)Cc3ccccc3)ccc12 (centres unmarked) , please.
**Result** A (A < 0.3))

**Query** Lookup CCN(CC)c1ccc2c(C)c(CCC(=O)NCCc3cccc(F)c3)c(=O)oc2c1
**Result** A (A < 0.3))

* * *

Target: WIL-FL (Homo sapiens, UniProt P01721)
Assay: Unlabeled LC Protease Sensitivity Assay (proteinase K)
Format: biochemical
Details: small molecule 10 μM, WIL-FL 5 μM, proteinase K 50 nM, 2 hours at 37° C.
observable: Protection (fold protection of LC from protease)

CCN(CC)c1ccc2c(C)c(CCNC(=O)NC)c(=O)oc2c1 :: B (3 ≤ B < 0.6)
C=C(C)CNc1ccc2c(C)cc(=O)oc2c1 :: A (A < 0.3))
CCN(CC)c1ccc2c(C)c(CC(=O)N(C)C)c(=O)oc2c1 :: A (A < 0.3))
CCN(CC)c1ccc2c(C)c(CCOC(=O)NCc3cccc(-c4ccccn4)c3)c(=O)oc2c1 :: C (C ≥ 0.6)
CCN(CC)c1ccc2c(C)c(CCOC(=O)NCC3CCN(C)CC3)c(=O)oc2c1 :: B (3 ≤ B < 0.6)

**Query** Given the entry Cc1cc(=O)oc2cc(N(CC3CC3)CC3CC3)ccc12 , report its measured Protection (fold protection of LC from protease).
**Result** A (A < 0.3))

**Query** Follow-up entry: Cc1c(CN2CCOCC2)c(=O)oc2cc(OC(C)c3ccccc3)ccc12 (stereo not drawn)
**Result** B (3 ≤ B < 0.6)

**Query** Repeat for the following compound: CCN(CC)c1ccc2c(C)c(CCOC(=O)NCc3cccc(-c4cc[nH]n4)c3)c(=O)oc2c1
**Result** C (C ≥ 0.6)

**Query** What do you get for CCN(CC)c1ccc2c(CCCOC(=O)NCc3cccc(C(N)=O)c3)cc(=O)oc2c1 ?
**Result** A (A < 0.3))

* * *

Molecular target: WIL-FL (Homo sapiens)
Assay: Unlabeled LC Protease Sensitivity Assay (proteinase K)
Format: biochemical
Settings: small molecule 10 μM, WIL-FL 5 μM, proteinase K 50 nM, 2 hours at 37° C.
observable: Protection (fold protection of LC from protease)

CCN(CC)c1ccc2c(C)c(CCOC(=O)NCCNc3ccccn3)c(=O)oc2c1 :: C (C ≥ 0.6)
Cc1cc(=O)oc2cc(OC(C)c3ccccn3)ccc12 (stereo not shown) :: A (A < 0.3))
CCN(CC)c1ccc2c(C)c(CCN3C(=O)NC4(CCN(C(=O)c5cnc[nH]5)C4)C3=O)c(=O)oc2c1 (stereo not shown) :: C (C ≥ 0.6)
CCN(CC)c1ccc2c(C)c(CC(=O)NCCCc3ccccc3)c(=O)oc2c1 :: A (A < 0.3))

* * *

Molecular target: human serum albumin (HSA) (Homo sapiens)
Sequence (P02768 25-609): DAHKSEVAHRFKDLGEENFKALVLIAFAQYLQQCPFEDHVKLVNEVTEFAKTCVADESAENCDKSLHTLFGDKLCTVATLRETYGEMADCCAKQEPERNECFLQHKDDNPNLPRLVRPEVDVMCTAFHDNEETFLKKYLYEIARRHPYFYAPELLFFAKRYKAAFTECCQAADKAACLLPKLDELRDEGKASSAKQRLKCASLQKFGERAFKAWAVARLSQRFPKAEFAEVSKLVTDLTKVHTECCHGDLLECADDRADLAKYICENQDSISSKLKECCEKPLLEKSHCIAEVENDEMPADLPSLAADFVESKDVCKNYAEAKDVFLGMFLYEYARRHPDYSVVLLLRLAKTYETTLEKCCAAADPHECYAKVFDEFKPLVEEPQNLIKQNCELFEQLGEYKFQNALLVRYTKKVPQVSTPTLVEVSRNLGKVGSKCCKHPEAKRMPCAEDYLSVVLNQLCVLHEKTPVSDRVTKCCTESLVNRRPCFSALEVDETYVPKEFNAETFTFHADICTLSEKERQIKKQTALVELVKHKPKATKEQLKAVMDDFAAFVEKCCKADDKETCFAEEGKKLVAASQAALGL
Assay: Binding of 1 to albumin by fluorescence of 1
observable: Kd (µM)
Value expressed in µM; do not type the unit.

**Query** What measured Kd goes with CCN(CC)c1ccc2c(C)cc(=O)oc2c1 ?
**Result** 37

* * *

For each entry below, report its Counterscreen activity (%) value.
Tested on: WIL-FL*
Test: FP artefact counterscreen (compounds added after 24 h of proteinase K treatment)
Assay type: biochemical, human
Parameters: concentration or dose not given beside the values
Settings: compound added after 24 h PK treatment; mean ± sd, n=3
# number only, unit % dropped from output

**Query** Using the record for CN(C)c1ccc(C2OCC(Cl)([N+](=O)O)CO2)cc1 (centres unmarked) [Compound 16] , report its Counterscreen activity (%).
**Result** −3.09

**Query** Similarly, Cc1cc(O)nc(N/N=C/C=C/c2ccccc2[N+](=O)[O-])n1 [Compound 5] ?
**Result** 8.04

**Query** Lookup CCN(CC)c1ccc2c(C)cc(=O)oc2c1 [Compound 1, 7-diethylamino-4-methylcoumarin]
**Result** −8.07

**Query** # iterate: CCN(CC)c1ccc2c(C)c(I)c(=O)oc2c1 [Compound 11]
**Result** 0.94

**Query** # iterate: CCN(CC)c1ccc2c(C)c(CC(C)=O)c(=O)oc2c1 [Compound 14]
**Result** 1.67

* * *

Target: WIL-FL (Homo sapiens, UniProt P01721)
Experiment: Unlabeled LC Protease Sensitivity Assay (proteinase K)
Assay type: biochemical
Conditions: small molecule 10 μM, WIL-FL 5 μM, proteinase K 50 nM, 2 hours at 37° C.
observable: Protection (fold protection of LC from protease)

These solved cases illustrate the format of a correct answer.
Cc1cc(=O)oc2cc(NCCCc3ccccc3)ccc12 [Compound 30] :: A (A < 0.3))
CCN(CC)c1ccc2c(C)c(CCOC(=O)NCc3cccc(-c4c[nH]cn4)c3)c(=O)oc2c1 [Compound 141] :: C (C ≥ 0.6)
CCN(CC)c1ccc2c(C)c(CCN3C(=O)NC4(CCN(c5ncc(C(F)(F)F)cn5)CC4)C3=O)c(=O)oc2c1 [Compound 186] :: A (A < 0.3))
CCN(CC)c1ccc2c(C)c(CC(=O)NC)c(=O)oc2c1 [Compound 60] :: A (A < 0.3))
Cc1cc(=O)oc2cc(N(C)C)ccc12 [Compound 266] :: A (A < 0.3))
CCN(CC)c1ccc2c(C)c(CCOC(=O)NCc3cccnc3)c(=O)oc2c1 [Compound 89] :: C (C ≥ 0.6)
CCN(CC)c1ccc2c(C)c(CCOC(=O)NCc3cccc(-c4ccncc4)c3)c(=O)oc2c1 [Compound 162] :: C (C ≥ 0.6)
Cc1cc(=O)oc2cc(OCCN)ccc12 [Compound 34] :: A (A < 0.3))
CCN(CC)c1ccc2c(C)c(CCOC(=O)N3CCN(c4cc(C)no4)CC3)c(=O)oc2c1 [Compound 113] :: A (A < 0.3))
CCCOc1ccc2c(C)cc(=O)oc2c1 [Compound 33, 4-methyl-7-propoxy-2H-chromen-2-one] :: A (A < 0.3))

**Query** I am curious: what Protection (fold protection of LC from protease) value has been reported for CC(C)CC1NC(=O)N(CC(=O)Nc2ccc(C(F)(F)F)cc2)C1=O (single isomer, unassigned) [Compound 23] ?
**Result** A (A < 0.3))

**Query** Then Cc1cc(=O)oc2cc(C(=O)NCc3c[nH]c4ccccc34)ccc12 [Compound 236] ?
**Result** A (A < 0.3))

**Query** Thanks! And CCN(CC)c1ccc2c(C)c(CCOC(=O)NCCc3ccccn3)c(=O)oc2c1 [Compound 82] ?
**Result** A (A < 0.3))

Data credit: patent US11945806B2
